I would appreciate it if you labelled entries MET when melting point is 200 °C or higher, otherwise NOT MET.

compound="N#Cc1cc(F)c(N[C@H]2CCC[C@@H](NC(=O)c3ncccc3F)C2)nc1-c1c[nH]c2c(F)cc(F)cc12 (racemic) [Compound 212]" class_assignment=MET
compound="Nc1nc(C(=O)N[C@@H]2CCC[C@H](Nc3nc(-c4c[nH]c5c(F)cc(F)cc45)ncc3F)C2)cs1 [Compound 145]" class_assignment="NOT MET"
compound="Cn1cnc(C(=O)N[C@@H]2CCC[C@H](Nc3nc(-c4c[nH]c5c(F)cc(Cl)cc45)ncc3F)C2)n1 [Compound 70]" class_assignment=MET
compound="Cc1cc(F)c2[nH]cc(-c3ncc(F)c(N[C@@H](CC(=O)O)C(C)(C)C)n3)c2c1 [Compound 169]" class_assignment="NOT MET"
compound="Nc1cc(C(=O)N[C@@H]2CCC[C@H](Nc3nc(-c4c[nH]c5c(F)cc(Cl)cc45)ncc3F)C2)n[nH]1 [Compound 59]" class_assignment=MET
compound="CC1(C(CC(=O)O)Nc2nc(-c3c[nH]c4c(F)cc(F)cc34)c(C#N)cc2F)CCCC1 (stereo not shown) [Compound 244]" class_assignment="NOT MET"
compound="Nc1nccc(C(=O)N[C@@H]2CCC[C@H](Nc3nc(-c4c[nH]c5c(F)cc(Cl)cc45)ncc3F)C2)n1 [Compound 65]" class_assignment=MET

###

Assay: in vitro
Settings: dog, TOX MDCK CC50
Listing: CC50 at 3 days of selected molecules
OBSERVED_PROPERTY: CC50 at 3 days (nM)

molecule="Cn1cnc(C(=O)N[C@@H]2CCC[C@H](Nc3nc(-c4c[nH]c5c(F)cc(Cl)cc45)ncc3F)C2)n1 [Compound 70]" unit_annotation=nM endpoint_result=9100
molecule="Cc1c[nH]c(C(=O)N[C@@H]2CCC[C@H](Nc3nc(-c4c[nH]c5c(F)cc(Cl)cc45)ncc3F)C2)n1 [Compound 71]" unit_annotation=nM endpoint_result=3400
molecule="C=CCC(C)(C)C(CC(=O)O)Nc1nc(-c2c[nH]c3c(F)cc(F)cc23)c(C#N)cc1F (stereo not shown) [Compound 241]" unit_annotation=nM endpoint_result=50
molecule="COCc1cc(C(=O)N[C@@H]2CCC[C@H](Nc3nc(-c4c[nH]c5c(F)cc(F)cc45)ncc3F)C2)no1 [Compound 87]" unit_annotation=nM endpoint_result=2400

###

OBSERVED_PROPERTY: melting point (°C)

compound=Cn1ccnc1C(=O)N[C@H]1CCC[C@@H](Nc2nc(-c3c[nH]c4c(F)cc(F)cc34)ncc2F)C1 observed_property="melting point" result_comparator== endpoint_result=166.6
compound=O=C(N[C@@H]1CCC[C@H](Nc2nc(-c3c[nH]c4c(F)cc(F)cc34)ncc2F)C1)c1cc(Cl)ccn1 observed_property="melting point" result_comparator== endpoint_result=86
compound="Cc1cc(F)c2[nH]cc(-c3ncc(F)c(NC(CC(=O)O)C(C)(C)C)n3)c2c1 (racemic)" observed_property="melting point" result_comparator== endpoint_result=182
compound="O=C(N[C@@H]1CCC[C@H](Nc2nc(-c3c[nH]c4c(F)cc(F)cc34)ncc2F)C1)C1CCCN1 (stereo partly shown)" observed_property="melting point" result_comparator== endpoint_result=208.1
compound=Nc1cccc(C(=O)N[C@@H]2CCC[C@H](Nc3nc(-c4c[nH]c5c(F)cc(Cl)cc45)ncc3F)C2)n1 observed_property="melting point" result_comparator== endpoint_result=268.4
compound=O=C(N[C@@H]1CCC[C@H](Nc2nc(-c3c[nH]c4c(F)cc(F)cc34)ncc2F)C1)c1ncccn1 observed_property="melting point" result_comparator=> endpoint_result=300
compound=C=CCC(C)(C)[C@@H](CC(=O)O)Nc1nc(-c2c[nH]c3c(F)cc(C)cc23)ncc1F observed_property="melting point" result_comparator=< endpoint_result=280
